system: SKBR3 (PI3Kα-Wild Type) cell line; experiment: HTRF phospho-AKT(S473) cell assay in SKBR3 cells; format: cell-based, human; conditions: Homo sapiens, SK-BR-3; SKBR3 (PI3Kα-Wild Type) cells, HTRF phospho-AKT(S473), 2 hours compound incubation, PDGF-BB stimulated
Hi there, I'd appreciate the recorded IC50 for every entry that follows.

Worked set:
C[C@@H](Nc1ccc[nH]c1=O)c1cc(F)cc2c(=O)n(C)c(N3Cc4cnn(C)c4C3)nc12    ≥ 5 µM
Cc1cc([C@@H](C)Nc2ccc(Cl)nc2C(=O)NS(C)(=O)=O)c2nc(N3CCC[C@H](c4ccc(N)cn4)C3)n(C)c(=O)c2c1 (relative stereo)    ≥ 5 µM
COC1CCC2(CC1)CCN(c1nc3c([C@@H](C)Nc4ccc(Cl)nc4C(=O)NS(C)(=O)=O)cc(C)cc3c(=O)n1C)CC2    ≥ 5 µM
Cc1cc([C@@H](C)Nc2ccc(Cl)nc2C(=O)NS(C)(=O)=O)c2nc(N3CCC(c4c(C)n[nH]c4C)CC3)n(C)c(=O)c2c1    1 to 5 µM
C[C@@H](Nc1ccc(Cl)nc1C(=O)NS(C)(=O)=O)c1cc(F)cc2c(=O)n(C)c(N3CCC(F)(F)CC3)nc12    1 to 5 µM

As a next step, examine the compound that follows.
Task: Query the reported IC50 for SKBR3 (PI3Kα-Wild Type) cell line; item: Cc1cc([C@@H](C)Nc2ccc(Cl)nc2C(=O)NS(C)(=O)=O)c2nc(N3C[C@H]4CC(c5ccn(C)n5)C[C@@H]4C3)n(C)c(=O)c2c1 (single isomer, unassigned)
Result: ≥ 5 µM
